# TEST: Clearance in Han Wistar rat plasma at 2 or 4 umol/kg, iv or 10 umol/kg, po
# Assay type: ADME, organism-based
READOUT_NAME: clearance (mL/min/kg)

Examples with their reported clearance follow.
Cc1nn(C2CCN(C(=O)CO)CC2)c(C)c1Nc1ncc(Cl)c(-c2cnn3ccccc23)n1 ... 8
Cc1nn(C2CCN(C(=O)[C@@H](C)O)CC2)c(C)c1Nc1ncc(Cl)c(-c2cnn3ccccc23)n1 ... 15

(I) CC(=O)N1CCC(n2nc(C)c(Nc3ncc(Cl)c(-c4cnn5ccccc45)n3)c2C)CC1
(II) CC(=O)N1CCC(n2ncc(Nc3ncc(Cl)c(-c4cnn5ccccc45)n3)c2C)CC1
Input line: Out of I and II , name the one with the higher clearance. Answer by stating the label of the chosen item.
Output line: II
(II: 45 mL/min/kg, I: 18 mL/min/kg)
